Ref: patent US20250333424A1

EC50 values for the molecules below.
Test system: monocytic THP1 cells infected with HIV VSV-G pseudotyped GFP-NEF reporter virus
Assay: cells
Assay type: cell-based
Settings: Human immunodeficiency virus 1, THP-1, 24 h
Response body: numeric value in nM, unit text excluded.

Some solved entries appear below for comparison.
Query: What does the record list as EC50 for C=C1c2c(Oc3c(C)cc(/C=C/C#N)cc3C)nc(NC34CC(C#N)(C3)C4)nc2C(=O)N1[C@H]1CC[C@@H](O)C1 ?
Response: 57.3

Query: // next record Cc1cc(/C=C/C#N)cc(C)c1Oc1nc(NC23CC(C#N)(C2)C3)nc2c1[C@H](C(F)(F)F)NC2=O
Response: 40.2

Query: Further, for CO[C@H]1COC2(C)c3c(Oc4c(C)cc(/C=C/C#N)cc4C)nc(NC45CC(C#N)(C4)C5)nc3C(=O)N2C1 (single isomer, unassigned) ?
Response: 22.8

Okay, next one:
Query: Given the molecule Cc1cc(/C=C/C#N)cc(C)c1Oc1nc(NC23CC(C#N)(C2)C3)nc2nc(C3CCOCC3)[nH]c12 , what is its reported EC50?
Response: 137

###

Reported pEC50 by item:
Test system: monocytic THP1 cells infected with HIV VSV-G pseudotyped GFP-NEF reporter virus
Experiment: cells
Format: cell-based
Conditions: Human immunodeficiency virus 1, THP-1, 24 h
pEC50 is a log-scale quantity: -log10 of the concentration expressed in molar.

Query: Using the record for COc1ccc(CN2C(=O)C(C)(C)c3c(Oc4c(C)cc(/C=C/C#N)cc4C)nc(NC45CC(C#N)(C4)C5)nc32)cc1 , report its pEC50.
Response: 7.45

Query: Next entry: Cc1cc(/C=C/C#N)cc(C)c1Oc1nc(NC23CC(C#N)(C2)C3)nc2[nH]nc(C)c12
Response: 7.72

Query: // query: Cc1cc(/C=C/C#N)cc(C)c1Oc1nc(NC23CC(C#N)(C2)C3)nc2c1C1(C)O[C@@H](CO)CN1C2=O (stereo partly shown)
Response: 6.93

Query: Next record, please: C=C1NC(=O)c2nc(NC34CC(C#N)(C3)C4)nc(Oc3c(C)cc(/C=C/C#N)cc3C)c21
Response: 8.08

---
Query: For Cc1cc(/C=C/C#N)cc(C)c1Oc1nc(NC23CC(C#N)(C2)C3)nc2c1c(N)nn2C , what is its reported pEC50?
Response: 6.96

Query: Consider next the compound Cc1cc(/C=C/C#N)cc(C)c1C(O)c1nc(NC23CC(C#N)(C2)C3)nc2nn(C)cc12 (stereo not shown) in the same way.
Response: 6.71

Query: What do you have for Cc1cc(/C=C/C#N)cc(C)c1Oc1nc(NC23CC(C#N)(C2)C3)nc2nn(C3CCOC3)cc12 (stereo not shown) ?
Response: 6.80

Query: Would you kindly repeat that for Cc1cc(/C=C/C#N)cc(C)c1Oc1nc(NC23CC(C#N)(C2)C3)nc2nn(-c3ccccc3)cc12 ?
Response: 6.79

Query: Request: Cc1cc(/C=C/C#N)cc(C)c1Oc1nc(NC23CC(C#N)(C2)C3)nc2c1C(C)OC2 (stereo not shown)
Response: 7.22

Query: Repeat for the following compound: Cc1cc(/C=C/C#N)cc(C)c1Oc1nc(NC23CC(C#N)(C2)C3)nc2c1[C@@H](C)N(CC(F)F)C2=O
Response: 7.73

Query: Try this compound too: Cc1cc(/C=C/C#N)cc(C)c1Oc1nc(NC23CC(C#N)(C2)C3)nc2c1C(C)N(C)C2=O (stereo not shown)
Response: 7.84

Query: Please give the result for Cc1cc(/C=C/C#N)cc(C)c1Oc1nc(NC23CC(C#N)(C2)C3)nc2nc3n(c12)CCO3 too.
Response: 7.44

Query: Would you kindly repeat that for Cc1cc(/C=C/C#N)cc(C)c1Oc1nc(NC23CC(C#N)(C2)C3)nc2nc3n(c12)CCCO3 (single isomer, unassigned) ?
Response: 7.47

Query: Please give the result for Cc1cc(/C=C/C#N)cc(C)c1Oc1nc(NC23CC(C#N)(C2)C3)nc2c1C(C)N(c1c(C)nn(C)c1C)C2=O (stereo not shown) too.
Response: 6.81
